Result type: melting point

Past entries and their recorded results:
>  <Compound>
CCOC(=O)C1=C(N2CCCC2)N=C(C)C(C(C)=O)C1c1cccc([N+](=O)[O-])c1 (stereo not drawn)

>  <Readout value>
130 °C

$$$$
>  <Compound>
CCc1cc(-c2nc(C)c(-c3ccnc(Nc4ccc(CNC(C)=O)cc4)n3)s2)ccn1

>  <Readout value>
224 to 225 °C

$$$$

# context switch: different compound, same melting point
**Query** Please give the measured melting point for this compound: CCOC(=O)C1C(=O)c2cc(F)ccc2N=C1c1ccccc1 (stereo not drawn)
**Result** 277 to 279 °C

* * *

So I've got a bunch of compounds here, and I need their melting point values.

Guide cases for melting point, answers given:
>  <Substance smiles>
CCOc1cccc(CN2CCc3cc(O)c(OC)cc3C2)c1

>  <Readout value>
105 to 106 °C

$$$$
>  <Substance smiles>
CN1CCC(Oc2ccc(N)cc2)(c2ccccc2)CC1

>  <Readout value>
174 to 175 °C

$$$$

With those in mind, consider the next compound.
**Query** Requested read-out: melting point. Entry: CCCn1c(=O)c2c(NC)n[nH]c2n(Cc2ccc(F)cc2)c1=O
**Result** 262 to 265 °C

* * *

Please respond with reported melting point for every item in the list.

These recorded examples may help you get a feel for the data.
>  <Compound>
CC(CNS(=O)(=O)c1ccccc1)c1ccc(OCC(=O)O)c(F)c1 (stereo not drawn)

>  <melting point>
49 to 51 °C

$$$$
>  <Compound>
N#Cc1cscc1Nc1c(Cl)cccc1Cl

>  <melting point>
105 to 108 °C

$$$$

Lab note: each compound below needs its melting point filled in.
1. COC(=O)c1cnccc1NC(=O)C(C)CSC(C)=O (stereo not drawn)
2. CNc1nc(N)nc(OCC(F)(F)F)n1
3. CCCCCc1ccc(OC(=O)Oc2ccc([N+](=O)[O-])cc2)cc1
4. CN1CCc2c(N3CCCC3)c(F)c(N)c3c(=O)c(C(=O)O)cn1c23
5. COc1ccc(C(=O)N2CCCC2=O)cc1OCc1ccccc1
6. O=S(=O)(NCCC(F)=C(F)F)c1ccc(C(F)(F)F)cc1
7. O=[N+]([O-])c1sccc1Nc1ccccc1
8. CC(C)OC(=O)Cc1nc(-c2ccc(Cl)cc2)oc1-c1ccco1

**Result**
1: 55 to 57 °C; 2: 204 to 205 °C; 3: 67 to 69 °C; 4: > 290 °C; 5: 92 °C; 6: 68 to 70 °C; 7: 105 °C; 8: 96 to 97 °C

Hey, quick one: what's melting point for each of these?
1. CS(=O)(=O)Nc1cc2oc(C(=O)O)cc(=O)c2cc1Oc1ccccc1
2. Cc1ccc(S(=O)(=O)OC[C@H]2CC[C@@H](COS(=O)(=O)c3ccc(C)cc3)O2)cc1
3. O=c1c2sc3ccccc3c2oc2cc(O)cc(O)c12
4. CCN1c2ncc(CCc3cncnc3)cc2C(=O)N(C)c2cccnc21
5. COc1cc(OC)c(/C=C/C(=O)Nc2ccc(OC)c(N)c2)c(OC)c1

**Result**
1. > 250 °C
2. 125 to 126 °C
3. > 300 °C
4. 142 to 143 °C
5. 92 to 94 °C

* * *

Would you mind telling me the reported melting point of each entry?

>  <Compound>
COCCOc1ccc(CCCOC(=O)NS(=O)(=O)c2ccccc2)c(Oc2ncc(C(F)(F)F)cc2Cl)c1

>  <Readout value>
174 to 177 °C

$$$$
>  <Compound>
Cc1c2c(c(C)c(NC(=O)CC(C)(C)C)c1-c1ccccc1)C(c1ccc(C(C)C)cc1)CO2 (stereo not drawn)

>  <Readout value>
212 to 213 °C

$$$$
>  <Compound>
O=[N+]([O-])c1cc(NS(=O)(=O)CCl)ccc1F

>  <Readout value>
112 to 113 °C

$$$$
>  <Compound>
COc1ccccc1C1=NN(C(=O)c2cccnc2)CC1C (stereo not drawn)

>  <Readout value>
124 to 125 °C

$$$$
>  <Compound>
COc1cc(NNc2nccc(Nc3ccc4nc(C)[nH]c4c3)n2)cc(OC)c1OC

>  <Readout value>
179 °C

$$$$
>  <Compound>
Cc1cccc2c1NC(=O)C(NC(=O)OCc1ccccc1)N=C2c1ccccc1F (racemic)

>  <Readout value>
222 to 225 °C

$$$$
>  <Compound>
Cc1nc(N2CCN(Cc3ccc(C(F)F)o3)C2=O)sc1C(=O)NCc1cccnc1

>  <Readout value>
142 to 143 °C

$$$$
>  <Compound>
O=C(Cc1ccc(Oc2ccc(F)cc2)cc1)NC1(C(=O)O)Cc2ccc(-c3ccc(Cl)cc3)cc2C1 (stereo not drawn)

>  <Readout value>
232 to 234 °C

$$$$
>  <Compound>
CC(C#N)=C1CCN(c2ccc(N3C[C@H](CNC(=O)C(Cl)Cl)OC3=O)cc2F)CC1

>  <Readout value>
202 to 204 °C

$$$$
>  <Compound>
CCC12CCC3C4CCC(OC)=CC4=CCC3C1C=CC2=O (stereo not drawn)

>  <Readout value>
159 to 161 °C

$$$$

Dear colleague, could you send me melting point for each of the items below? Thanks.
1. CCn1c(=O)c2[nH]c(/C=C/c3cccc(OC(F)(F)F)c3)nc2n(CC)c1=O
2. CC(CCC(F)(F)C(C)(C)O)C1CCC2C3CC=C4CC(O)CC(O)C4(C)C3CCC12C (stereo not drawn)
3. Cc1ccc2c(C(=O)NC(C)C)c(NC(=O)c3cc(C(F)(F)F)nn3-c3ncccc3Cl)c(C)cc2n1
4. CC(C)(C)OC(=O)c1ncn2c1[C@@H]1CCCN1C(=O)c1sccc1-2
5. OCc1nnc(-c2ccc(-c3ccccc3)cc2)n1-c1ccccc1F
6. NCCNc1cc(NCCO)c([N+](=O)[O-])c(NCCO)c1
7. COC(=O)[C@@H](CCCc1ccc(OCc2nc(-c3ccco3)oc2C)c(OC)c1)OC(N)=O

**Result**
266 to 267 °C
177 to 179 °C
> 240 °C
226 to 227 °C
220 to 223 °C
220 °C
110 to 111 °C

* * *

So I've got a bunch of compounds here, and I need their melting point values.

Hi! Can you tell me melting point for each of these compounds?
1. Nc1cccc2c3c([nH]c12)C=C(NC(=O)c1ccc(F)cc1)C=CC3
2. COC(OC)c1cnc(-c2ccccc2)[nH]1
3. COc1cc(-c2c(C)noc2C)cc2oc(=O)c(C)c(C)c12

**Result**
121 to 122 °C
158 to 160 °C
145 to 147 °C

* * *

Result type: melting point (°C)
Numbers only, in °C.

Consider the following illustrative entries.
>  <Molecule>
O=C(CBr)c1ccc(OCc2ccccc2)c([N+](=O)[O-])c1

>  <melting point (°C)>
136

$$$$
>  <Molecule>
CCCC1COc2cc(C3COc4cc(C#N)c(F)cc4C3)c(F)cc2C1 (stereo unspecified)

>  <melting point (°C)>
122

$$$$

**Query** Which melting point is reported for this molecule? COC(=O)C(=C1SCCCN1C(=O)C(Cl)Cl)[N+](=O)[O-]
**Result** 122

* * *

Result type: melting point

Below, 10 compounds whose answers are already recorded.
>  <Compound>
CC(C)(C)c1ccc(/C=N/OCCCOc2ccc(CCC(=O)O)cc2)cc1

>  <Result type>
melting point

>  <Readout value>
101 to 102 °C

$$$$
>  <Compound>
Cc1c(Cl)cc(NC(=O)CCl)c(O)c1Cl

>  <Result type>
melting point

>  <Readout value>
149 °C

$$$$
>  <Compound>
OC1(Cc2nc[nH]n2)CCCc2ccccc21 (centres undefined)

>  <Result type>
melting point

>  <Readout value>
105 to 108 °C

$$$$
>  <Compound>
CCOC(=O)CCc1ccc2c(c1)CC(CNC(=O)OC(C)(C)C)CC2 (centres undefined)

>  <Result type>
melting point

>  <Readout value>
69 to 71 °C

$$$$
>  <Compound>
O=C(O)C(=O)c1ccc(OCCCOc2ccccc2)cc1

>  <Result type>
melting point

>  <Readout value>
50 to 52 °C

$$$$
>  <Compound>
COc1cc2c(cc1OC)C(c1ccccc1)N(C(=O)NCCN(C(C)C)C(C)C)CC2 (centres undefined)

>  <Result type>
melting point

>  <Readout value>
109 to 110 °C

$$$$
>  <Compound>
C=CCNC(=O)N1CC(Oc2cccc(C)c2)C1

>  <Result type>
melting point

>  <Readout value>
95 to 96 °C

$$$$
>  <Compound>
Cc1cccc(C)c1NC(=O)CN1CCN(CCCC(c2ccc(F)cc2)c2ccc(F)cc2)CCN1

>  <Result type>
melting point

>  <Readout value>
145 to 148 °C

$$$$
>  <Compound>
CNC(=O)Oc1ccc(NC(=O)C(Cl)(Cl)Cl)c(C)c1

>  <Result type>
melting point

>  <Readout value>
185 to 187 °C

$$$$
>  <Compound>
O=[N+]([O-])c1ncn(COC(CO)CO)n1

>  <Result type>
melting point

>  <Readout value>
132 °C

$$$$

For the 8 compounds below, give their melting point values.
1. COC(=O)COc1ccc([C@H]2c3ccc(OCc4ccccc4)cc3OC[C@H]2c2ccccc2)cc1 (racemic)
2. CCOC(=O)CCNc1ncccc1NC(=O)c1cccc(Cl)c1
3. CCCc1nc2c(N)nc3ccccc3c2n1CCCC(CC(C)C)=NO
4. COc1ccc(C2CCN(C(=O)CC(=O)O)CC2)cc1OC1CCCC1
5. COCC(O)Cn1c2ccc(OC)cc2c2c3c(c(-c4ccccc4)cc21)C(=O)NC3=O (centres undefined)
6. COc1cc(-n2cnc3cc(-c4ccc(Cl)cc4)sc3c2=O)ccc1OC[C@H](OP(=O)(O)O)C1CC1
7. N=C(N)c1ccc(O)cc1
8. CCOC(=O)C(=NOC)C1=CSCCN1C=O

**Result**
143 to 144 °C
111 to 112 °C
207 to 209 °C
122 to 123 °C
128 to 136 °C
166 °C
160 °C
94 to 96 °C

Batch of 6 compounds: report melting point for each.
1. COc1ccnnc1NS(=O)(=O)c1cccc(Cl)c1Cl
2. CS(=O)(=O)Nc1ccc(C(=O)C2CCN(CCc3cn4ccccc4n3)CC2)cc1
3. Cc1c(Cc2cc(Cl)cc(Cl)c2)c(C(C)C)nn1CCO
4. O=C(O)COc1ccc(C(=O)c2ccccc2O)c(Cl)c1Cl
5. CN(Cc1cc2c3c(c1)c(=O)c(C(=O)NCc1ccc(F)cc1)cn3CC(=O)N2C)C[C@@H](O)c1cccs1
6. CN1CCN(C2Cc3ccccc3Sc3cc(F)c(Cl)cc32)CC1 (centres undefined)

**Result**
210 to 211 °C
190 to 191 °C
77 to 78 °C
201 to 203 °C
113 to 115 °C
105 to 107 °C
